Values from patent US8163909B2

Answer each item with its documented IC50.
tested on: Aβ40 in conditioned medium of cells stably expressing Amyloid Precursor Protein (APP); test: In vitro BACE cell-based assay (Aβ40 in conditioned medium, sandwich ELISA); settings: Homo sapiens, HEK293, HEK cell-based assay, IC50's in uM; read-out: HEK cell assay;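 note: compounds added as a dilution series, secreted peptide quantified by europium time-resolved fluorescence readout, potency fitted from percent of control versus compound concentration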
Answer format: numeric, µM implied, no suffix.

Task item: Param item = CC(C)(C)CCC(=O)N[C@@H](Cc1ccccc1)[C@H](O)CN[C@H]1CC2(CCC2)Oc2ncc(CC(C)(C)C)cc21 [compound 819] ; retrieve measured IC50.
Reply: 0.074

Task item: State the recorded IC50 for this entry: CC(C)Cc1cnc2c(c1)[C@@H](NC[C@H](O)[C@@H](Cc1cccc(-c3nccs3)c1)NC(=O)[C@H]1CCCO1)CC1(CCC1)O2 [compound 795]
Reply: 0.206

Task item: Need IC50, item C#Cc1cccc(C[C@H](NC(=O)C(OC)OC)[C@H](O)CN[C@H]2CC3(CCC3)Oc3ncc(CC(C)(F)F)cc32)c1 [compound 830]
Reply: 0.023
